- Test system: Tov-21-G
- testName: Primary qHTS to identify gynecologic anti-cancer compounds using libraries of approved drugs and bioactive compounds (AID 1345084); also: nearly all actives have a fitted effect of over 55% in size
- testContext: Gynecologic cancer cell panel viability, ATPlite luminescence, 48 h; series mostly up to 57.5 µM
Results filed as inconclusive are left out. The source made the active and inactive calls. Calls follow the shape of the dose curve; as a rule, active = well fitted cell-killing curve with a large enough effect; inconclusive = small, poorly fitted or top-dose-only effect, or effect the other way; inactive = flat fitted curve, though single readings scatter.
Labels: 1 for active, 0 for inactive

INSERT INTO measurements (compound, classname) VALUES
  ('O=C1NC2CCc3nc4ccccc4c(=O)n3C2=Nc2ccccc21 (stereo not given)', 0),
  ('Cc1nc(C)c(-c2ccc(C3CCC(CC(=O)O)CC3)cc2)nc1C(N)=O (stereo not given)', 0),
  ('CCCCc1nc2cc(/C=C/C(=O)NO)ccc2n1CCN(CC)CC', 1),
  ('CC(C)CNCc1ccc(-c2ccccc2S(=O)(=O)N2CCCC2)cc1', 0),
  ('C[C@@H]1N[C@H]2N(C1=O)c1ccccc1[C@@]2(O)C[C@@H]1C(=O)N[C@@H](C)c2nc3ccccc3c(=O)n21', 0);
